Origin of values: the supplement of paper PMC9262897

- Test system: E. coli TESEC Mtb Alr
- Protocol: growth (OD600 after 10 h); higher = more growth (less inhibition)
- Assay setup: arabinose 100 nM; compound 0.1 mM; raw OD600 reference: median of DMSO wells 0.413, cell-free background 0.052
Structures can show the parent of a compound that is named as a salt.
Metric: growth
Enter a number only.

*Q* Form field: reported growth of CCSc1ccc2c(c1)N(CCCN1CCN(C)CC1)c1ccccc1S2 [Thiethylperazine dimalate]
*A* 0.0513

*Q* Same thing, different molecule: Nc1nc2ccc(OC(F)(F)F)cc2s1 [Riluzole hydrochloride]
*A* 0.415

*Q* Same thing, different molecule: C[C@H](CS)C(=O)N1CCC[C@H]1C(=O)O [Captopril]
*A* 0.41

*Q* Same thing, different molecule: CCC1(c2ccccc2)NC(=O)N(C)C1=O (stereo not drawn) [Mephenytoin]
*A* 0.427

*Q* Same thing, different molecule: CCCc1nc(C)c2c(=O)nc(-c3cc(S(=O)(=O)N4CCN(CC)CC4)ccc3OCC)[nH]n12 [Vardenafil]
*A* 0.41

*Q* Same thing, different molecule: CC[N+](C)(C)Cc1ccccc1Br [Bretylium tosylate]
*A* 0.409

*Q* Same thing, different molecule: COCC1=C(C(=O)OC(C)OC(=O)OC(C)C)N2C(=O)[C@@H](NC(=O)/C(=N\OC)c3csc(N)n3)[C@H]2SC1 (stereo partly drawn) [Cefpodoxime proxetil]
*A* 0.0545

*Q* Same thing, different molecule: CC(CN(C)C)CN1c2ccccc2CCc2ccccc21 (stereo not drawn) [Trimipramine maleate salt]
*A* 0.395

*Q* Same thing, different molecule: Nc1ccccc1S(N)(=O)=O [2-Aminobenzenesulfonamide]
*A* 0.416

*Q* Same thing, different molecule: O=C(CCNNC(=O)c1ccncc1)NCc1ccccc1 [Nialamide]
*A* 0.431

*Q* Same thing, different molecule: CC1(C)O[C@@H]2C[C@H]3[C@@H]4CCC5=CC(=O)C=C[C@]5(C)[C@H]4[C@@H](O)C[C@]3(C)[C@]2(C(=O)CO)O1 [Desonide]
*A* 0.414

*Q* Same thing, different molecule: CCC(=O)OCC(=O)[C@@]1(OC(=O)CC)[C@@H](C)C[C@H]2[C@@H]3CCC4=CC(=O)C=C[C@]4(C)[C@@]3(Cl)[C@@H](O)C[C@@]21C [Beclomethasone dipropionate]
*A* 0.442

*Q* Same thing, different molecule: COc1cc2c(cc1OC)C(=O)C(CC1CCN(Cc3ccccc3)CC1)C2 (stereo not drawn) [Donepezil hydrochloride]
*A* 0.404

*Q* Same thing, different molecule: CN(Cc1cc(Br)cc(Br)c1N)C1CCCCC1 [Bromhexine hydrochloride]
*A* 0.0619

*Q* Same thing, different molecule: Cc1cc(C(C)(C)C)c(O)c(C)c1CC1=NCCN1 [Oxymetazoline hydrochloride]
*A* 0.414

*Q* Same thing, different molecule: CCN(CC)C(=O)Nc1ccc(OCC(O)CNC(C)(C)C)c(C(C)=O)c1 (stereo not drawn) [Celiprolol HCl]
*A* 0.421

*Q* Same thing, different molecule: CC(=O)NC[C@H]1CN(c2ccc(N3CCOCC3)c(F)c2)C(=O)O1 [Linezolid]
*A* 0.135

*Q* Same thing, different molecule: CO[C@@H]1[C@@H](OC(N)=O)[C@@H](O)[C@H](Oc2ccc3c(O)c(NC(=O)c4ccc(O)c(CC=C(C)C)c4)c(=O)oc3c2C)OC1(C)C [Novobiocin sodium salt]
*A* 0.0617

*Q* Same thing, different molecule: O=C(O)c1cc(-c2ccc(F)cc2F)ccc1O [Diflunisal]
*A* 0.248

*Q* Same thing, different molecule: COC(=O)C1=C(C#N)NC(C)=C(C(=O)OC(C)C)C1c1cccc([N+](=O)[O-])c1 (stereo not drawn) [Nilvadipine]
*A* 0.429

*Q* Same thing, different molecule: NC(=O)OCC(O)COc1ccc(Cl)cc1 (stereo not drawn) [Chlorphensin carbamate]
*A* 0.416

*Q* Same thing, different molecule: CN1Cc2c(N)cccc2C(c2ccccc2)C1 (stereo not drawn) [Nomifensine maleate]
*A* 0.412

*Q* Same thing, different molecule: COc1cc(Cc2cnc(N)nc2N)cc(OC)c1OC [Trimethoprim]
*A* 0.0922
